The reported measurements were obtained from paper PMC7241567.

Target: FLT3 (D835Y) (Homo sapiens, UniProt P36888, D835Y)
Construct: purchased Reaction Biology Corp. (Kinase HotSpot service)
Assay: Enzymatic activity against FLT3 mutants
Assay type: biochemical
Settings: FLT3 (D835Y)
reported-property: pIC50
One number for each entry, as −log10 of the molar value.

Query block: Query: pIC50; subject: Cc1oncc1C(=O)Nc1ccc2cnc(-c3cc(N4CCN(C)CC4)cc(C(F)(F)F)c3)nc2c1
Result block: 6.64

====

Target: FLT3 (F594_R595 ins R) (Homo sapiens, UniProt P36888, INS594R)
Experiment: Enzymatic activity against FLT3 mutants
reported-property: IC50 (µM)
Answers are plain numbers, in µM.

Query block: Query: IC50; subject: Cc1oncc1C(=O)Nc1ccc2cnc(-c3cc(N4CCN(C)CC4)cc(C(F)(F)F)c3)nc2c1
Result block: 0.524

====

Molecular target: FLT3 (Y591_V592 ins VDFREYEYD) (Homo sapiens, UniProt P36888, INS591VDFREYEYD)
Assay: Enzymatic activity against FLT3 mutants
reported-property: pIC50
Numbers only, as −log10 of the molar value.

Query block: Query: pIC50; subject: Cc1oncc1C(=O)Nc1ccc2cnc(-c3cc(N4CCN(C)CC4)cc(C(F)(F)F)c3)nc2c1
Result block: 6.14

====

Biological target: FLT3 (D835Y) (Homo sapiens, UniProt P36888, D835Y)
Construct: purchased Reaction Biology Corp. (Kinase HotSpot service)
Test: Enzymatic activity against FLT3 mutants
Format: biochemical
Conditions: FLT3-TKD (D835Y)
reported-property: pIC50
One number for each entry, as −log10 of the molar value.

Query block: Request - read-out pIC50 | tested on FLT3 (D835Y) (Homo sapiens, UniProt P36888, D835Y) | compound Cc1oncc1C(=O)Nc1ccc2cnc(-c3cc(N4CCN(C)CC4)cc(C(F)(F)F)c3)nc2c1
Result block: 6.64

====

Molecular target: FLT3 (F594_R595 ins EY) (Homo sapiens, UniProt P36888)
Sequence (P36888 610-943 limits assumed): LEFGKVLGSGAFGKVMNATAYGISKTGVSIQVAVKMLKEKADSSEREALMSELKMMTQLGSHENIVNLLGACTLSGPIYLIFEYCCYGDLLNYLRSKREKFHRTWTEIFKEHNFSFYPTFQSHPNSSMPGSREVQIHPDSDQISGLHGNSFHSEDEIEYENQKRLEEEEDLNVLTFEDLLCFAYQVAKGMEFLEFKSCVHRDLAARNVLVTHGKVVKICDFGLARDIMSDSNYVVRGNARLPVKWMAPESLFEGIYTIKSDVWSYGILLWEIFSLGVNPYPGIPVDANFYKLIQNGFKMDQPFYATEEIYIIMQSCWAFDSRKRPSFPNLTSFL
Assay: Enzymatic activity against FLT3 mutants
reported-property: pIC50
Numbers only, as −log10 of the molar value.

Query block: Query: pIC50; subject: Cc1oncc1C(=O)Nc1ccc2cnc(-c3cc(N4CCN(C)CC4)cc(C(F)(F)F)c3)nc2c1
Result block: 6.31

====

Molecular target: FLT3 (Homo sapiens, UniProt P36888)
For each of the compounds below, state its pIC50.
Numbers only, as −log10 of the molar value.

[
  {
    "item-smiles": "Cc1oncc1C(=O)Nc1ccc2cnc(-c3cc(N4CCN(C)CC4)cc(C(F)(F)F)c3)nc2c1",
    "reported-property": "pIC50",
    "value": 6.97
  }
]

Next compound, pIC50 to be filled in.
Query block: Request - read-out pIC50 | tested on FLT3 (Homo sapiens, UniProt P36888) | compound Cc1oncc1C(=O)Nc1ccc2cnc(-c3ccc4[nH]ncc4c3)nc2c1
Result block: 6.10

====

Target: RIPK3 (Homo sapiens)
Sequence (Q9Y572 whole entry): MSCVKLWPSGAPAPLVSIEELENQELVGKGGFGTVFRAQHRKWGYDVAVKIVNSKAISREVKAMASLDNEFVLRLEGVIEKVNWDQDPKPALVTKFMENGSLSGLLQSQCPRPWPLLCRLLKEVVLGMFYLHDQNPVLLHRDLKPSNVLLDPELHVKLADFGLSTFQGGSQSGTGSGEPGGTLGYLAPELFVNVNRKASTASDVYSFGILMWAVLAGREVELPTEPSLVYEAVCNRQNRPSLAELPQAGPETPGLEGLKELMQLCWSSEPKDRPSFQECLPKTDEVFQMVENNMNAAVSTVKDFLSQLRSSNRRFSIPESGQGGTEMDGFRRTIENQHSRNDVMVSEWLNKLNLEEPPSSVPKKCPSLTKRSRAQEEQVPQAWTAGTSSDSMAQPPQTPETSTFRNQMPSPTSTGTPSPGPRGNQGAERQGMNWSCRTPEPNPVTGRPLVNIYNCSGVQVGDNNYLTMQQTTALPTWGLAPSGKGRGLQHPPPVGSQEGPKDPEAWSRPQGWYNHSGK
reported-property: IC50

Query block: Query: IC50; subject: O=C1Nc2ccc(I)cc2/C1=C/c1cc(Br)c(O)c(Br)c1 [GW5074, reference compound]
Result block: 1.65 µM
